# system_under_test: gst-CrkSH3SH3
# Sequence (Q64010 132-296 limits assumed): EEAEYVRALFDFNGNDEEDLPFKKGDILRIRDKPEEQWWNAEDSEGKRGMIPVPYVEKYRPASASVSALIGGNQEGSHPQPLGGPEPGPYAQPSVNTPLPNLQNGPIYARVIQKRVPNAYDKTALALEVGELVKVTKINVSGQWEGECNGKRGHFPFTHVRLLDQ
# experiment_description: ELISA: biotinylated gst-CB fusion proteins binding to immobilized gst-CrkSH3SH3
# recorded_conditions: wells coated with 100 ng/well gst-CrkSH3SH3, biotinylated gst-CB fusion protein, read-out: apparent Kd (half saturation point)
Where no end group is shown, it is not given here.
readout_type: Kd (nM)
# output: bare number, implied unit nM

Qu. Determine its reported Kd: gst-CB-1: gst-fusion protein containing only the single proline-rich sequence CB-1 of C3G (SPPPALPPKKRQ; also: fused to GST)
Ans. 10.4

Qu. Determine its reported Kd: gst-CB-3: gst-fusion protein containing only the single proline-rich sequence CB-3 of C3G (EKPPPLPEKKNK; also: fused to GST)
Ans. 11.3

Qu. Determine its reported Kd: gst-CB-4: gst-fusion protein containing only the single proline-rich sequence CB-4 of C3G (APPPALPPKQRQ; also: fused to GST)
Ans. 2.85

Qu. Determine its reported Kd: gst-CB-2: gst-fusion protein containing only the single proline-rich sequence CB-2 of C3G (DTPPALPEKKRR; also: fused to GST)
Ans. 27
